- Test system: UACC-257 melanoma
- method description: NCI-60 one-dose screen, 48 h
- test parameters: 10 µM unless noted
- Protocol: Cells are grown in 96 well plates and exposed to the test compound for 48 hours. Compounds are tested at a single concentration, which is 10^-5 M for most compounds. The reported endpoint is percent growth (GI% or GIPRCNT), where numbers from 0 - 100% represent growth inhibition, and numbers from -100% - 0 represent cell death. For example, a value of 40 represents 60% growth inhibition. A value of 0 means no net growth occurred over the course of the experiment. […]
The panel holds about 83,000 compounds, 20% with a hit somewhere; the sample as a whole holds those more often. The source made the active and inactive calls. Rule for the calls: active = growth percent below 10; inactive = the rest.
Pick one and only one: true (1) (active), false (0) (inactive)

As a guide, the following entries are already answered.
Cc1ncc(C(=O)Nc2ccc(CN3CCN(C)CC3)c(C(F)(F)F)c2)cc1C#Cc1c(N)ncc2ccccc12 | true (1)
COC(=O)/C=C/c1cc(O)c2oc(-c3ccc(O)c(O)c3)c(C(=O)OC)c2c1 | false (0)
N#CC1=C(N2CCOCC2)NC2c3ccccc3Sc3ccccc3N2C1=N (stereo not given) | false (0)
COc1cc2cc3cc4cc(OC)c(OC)cc4c(C)[n+]3cc2cc1OC (tested in a mixture with another compound) | false (0)
Nc1nc2cc(O)ccc2n2cc3c(F)cccc3c12 | false (0)

*Q* I'd appreciate the recorded outcome for CC(C)(C)c1ccc([I+]c2ccc(C(C)(C)C)cc2)cc1 from this test.
*A* true (1)

*Q* I'd appreciate the recorded outcome for CCOC(=O)CCCCCCCCC(=O)OCC from this test.
*A* false (0)

*Q* I'd appreciate the recorded outcome for COc1cccc(CNC(=O)c2cccc(C3CC(=O)c4c(cc(OC)c(OC)c4OC)O3)c2)c1 (stereo not given) from this test.
*A* false (0)

*Q* I'd appreciate the recorded outcome for COC(=O)[C@H](Cc1cn(C)cn1)NC(=O)[C@@H](NC(=O)Nc1cc(C(F)(F)F)cc(C(F)(F)F)c1)C(C)(C)C from this test.
*A* true (1)

*Q* I'd appreciate the recorded outcome for O=C1N/C(=N\c2nnc(-c3ccc(O)cc3)s2)S/C1=C\c1ccccc1O from this test.
*A* false (0)
